Target: human renal renin (Homo sapiens)
Sequence (P00797 67-406): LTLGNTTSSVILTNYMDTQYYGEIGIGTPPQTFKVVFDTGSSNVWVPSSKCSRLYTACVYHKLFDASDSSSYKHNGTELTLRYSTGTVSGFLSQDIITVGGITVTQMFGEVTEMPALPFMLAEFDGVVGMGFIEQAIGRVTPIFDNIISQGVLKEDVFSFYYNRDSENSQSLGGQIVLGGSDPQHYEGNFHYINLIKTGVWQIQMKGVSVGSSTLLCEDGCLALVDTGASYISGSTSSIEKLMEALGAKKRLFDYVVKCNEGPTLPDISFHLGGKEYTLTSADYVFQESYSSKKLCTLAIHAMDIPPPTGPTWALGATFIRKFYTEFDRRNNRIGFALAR
Reported IC50 by item:
I only need the number, in nM, no unit after it.

COMPOUND	MEASUREMENT UNIT	IC50
CC(C)C[C@H](NC(=O)[C@H](C)NC(=O)[C@H](Cc1ccccc1)NC(=O)OC(C)(C)C)C(O)C=O (stereo partly drawn)	nM	10
CC(C)CC(=O)C(O)[C@H](CC1CCCCC1)NC(=O)[C@H](Cc1cnc[nH]1)NC(=O)[C@H](Cc1ccccc1)NC(=O)OC(C)(C)C (stereo partly drawn)	nM	10

Would you kindly share the measured IC50 for C[C@H](NC(=O)[C@H](Cc1ccccc1)NC(=O)OC(C)(C)C)C(=O)N[C@@H](CC1CCCCC1)[C@@H](O)CCl ?
400
